Assay: clinical
Details: human, in vivo, rotigotine plasma concentration Mean
property: concentration at 18 h (ng/mL)

[[record]]
compoundstring = "CCCN(CCc1cccs1)[C@H]1CCc2c(O)cccc2C1"
property = "concentration at 18 h"
valueobserved = 1.32


----------
Assay: clinical
Details: human, in vivo, rotigotine plasma concentrations, Median
property: concentration at 22 h (ng/mL)

[[record]]
compound = "CCCN(CCc1cccs1)[C@H]1CCc2c(O)cccc2C1 [rotigotine]"
property = "concentration at 22 h"
valueobserved = 0.804


----------
Assay: clinical
Settings: human, in vivo, rotigotine plasma concentrations, Geo. Mean
property: concentration at 20 h

[[record]]
molecule = "CCCN(CCc1cccs1)[C@H]1CCc2c(O)cccc2C1 [rotigotine]"
valueobserved = "1.02 ng/mL"


----------
Experiment: clinical
Settings: human, in vivo, rotigotine plasma concentrations, Geo. Mean
property: concentration at 22 h

[[record]]
molecule = "CCCN(CCc1cccs1)[C@H]1CCc2c(O)cccc2C1 [rotigotine]"
property = "concentration at 22 h"
valueobserved = "0.91 ng/mL"


----------
Experiment: clinical
Details: human, in vivo, rotigotine plasma concentrations, Median
property: concentration at 14 h (ng/mL)

[[record]]
compound = "CCCN(CCc1cccs1)[C@H]1CCc2c(O)cccc2C1 [rotigotine]"
units = "ng/mL"
valueobserved = 0.816


----------
Test: Multiple dose trial with rotating patch application sites in early-stage Parkinson's disease: rotigotine pharmacokinetics (Example 4)
Conditions: human, in vivo, 18 mg/day, rotigotine plasma concentration Mean, Hip, Days 27 & 30 Combined, 23.5 H
property: concentration at […]

[[record]]
compoundstring = "CCCN(CCc1cccs1)[C@H]1CCc2c(O)cccc2C1"
valueobserved = "0.89 ng/mL"


----------
Test: clinical
Conditions: human, in vivo, rotigotine plasma concentration Median
property: concentration at 18 h

[[record]]
compoundstring = "CCCN(CCc1cccs1)[C@H]1CCc2c(O)cccc2C1"
property = "concentration at 18 h"
valueobserved = "1.17 ng/mL"


----------
Test: Multiple dose trial with rotating patch application sites in early-stage Parkinson's disease: rotigotine pharmacokinetics (Example 4)
Conditions: human, in vivo, 18 mg/day, rotigotine plasma concentration Max, Hip, Day 30, 23.5 H
property: concentration at […] (ng/mL)

[[record]]
compoundstring = "CCCN(CCc1cccs1)[C@H]1CCc2c(O)cccc2C1"
property = "concentration at […]"
valueobserved = 1.35


----------
Experiment: Multiple dose trial with rotating patch application sites in early-stage Parkinson's disease: rotigotine pharmacokinetics (Example 4)
Conditions: human, in vivo, 18 mg/day, rotigotine plasma concentration Mean, Upper Arm; Day 30; 23.5 H
property: concentration at […] (ng/mL)

[[record]]
compoundstring = "CCCN(CCc1cccs1)[C@H]1CCc2c(O)cccc2C1"
valueobserved = 0.924


----------
Assay: clinical
Conditions: human, in vivo, rotigotine plasma concentrations, Geo. Mean
property: concentration at 14 h

[[record]]
molecule = "CCCN(CCc1cccs1)[C@H]1CCc2c(O)cccc2C1 [rotigotine]"
property = "concentration at 14 h"
valueobserved = "0.84 ng/mL"


----------
Test: Multiple dose trial with rotating patch application sites in early-stage Parkinson's disease: rotigotine pharmacokinetics (Example 4)
Settings: human, in vivo, 18 mg/day, rotigotine plasma concentration Median, Hip, Day 27, 23.5 H
property: concentration at […] (ng/mL)

[[record]]
compoundstring = "CCCN(CCc1cccs1)[C@H]1CCc2c(O)cccc2C1"
property = "concentration at […]"
valueobserved = 0.957


----------
Assay: clinical
Settings: human, in vivo, rotigotine plasma concentrations, Mean
property: concentration at 18 h (ng/mL)

[[record]]
compound = "CCCN(CCc1cccs1)[C@H]1CCc2c(O)cccc2C1 [rotigotine]"
valueobserved = 1.06


----------
Assay: Multiple dose trial with rotating patch application sites in early-stage Parkinson's disease: rotigotine pharmacokinetics (Example 4)
Details: human, in vivo, 18 mg/day, rotigotine plasma concentrations, Geo. Mean, Application Site = Abdomen; Days 27 & 30 Combined; 23.5 H
property: concentration at […] (ng/mL)

[[record]]
compoundstring = "CCCN(CCc1cccs1)[C@H]1CCc2c(O)cccc2C1"
valueobserved = 0.676

